target entity: KRAS G12D (Homo sapiens (Human), UniProt P01116+P62937, G12D)
Sequence (P01116-2 other isoform, or with tags, fused parts or gaps G12D): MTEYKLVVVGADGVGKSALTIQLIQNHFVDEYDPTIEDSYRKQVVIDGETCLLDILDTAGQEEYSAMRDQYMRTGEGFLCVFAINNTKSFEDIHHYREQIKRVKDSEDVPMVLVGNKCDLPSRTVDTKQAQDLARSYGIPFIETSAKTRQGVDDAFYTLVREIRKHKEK
Sequence (P62937 whole entry): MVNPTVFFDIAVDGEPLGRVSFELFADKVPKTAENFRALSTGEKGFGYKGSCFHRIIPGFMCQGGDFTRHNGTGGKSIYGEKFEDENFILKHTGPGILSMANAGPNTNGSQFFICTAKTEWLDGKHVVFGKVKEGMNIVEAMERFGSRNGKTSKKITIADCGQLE
protocol details: Ras-Raf (BRAF RBD) disruption / FRET / MOA assay, KRAS G12D
Type: biochemical
setup conditions: Ras-Raf disruption/FRET/MOA assay; class symbols; read-out: KRAS G12D FRET data IC50
Consider the following compounds; for each one, report its IC50.

Looking up C=CC(=O)N1CC[C@H](C(=O)N(C)[C@H](C(=O)N[C@H]2Cc3cc(O)cc(c3)-c3ccc4c(c3)c(c(-c3cncs3)n4CC)CC(C)(C)COC(=O)[C@@H]3CCCN(N3)C2=O)C(C)C)C1 [Example A143] , I see its IC50 listed as > 10000 nM

Looking up C=CC(=O)N1CC[C@H](C(=O)N(C)[C@H](C(=O)N[C@H]2Cc3cc(cc(C(F)F)c3)-c3ccc4c(c3)c(c(-c3cccnc3[C@H](C)OC)n4CC)CC(C)(C)COC(=O)[C@@H]3CCCN(N3)C2=O)C(C)C)C1 (atropisomer, axis not shown) [Example A341] , I see its IC50 listed as 1000 to 10000 nM

Looking up CC#CC(=O)N1CC[C@H](C(=O)N(C)[C@H](C(=O)N[C@H]2Cc3nc(cs3)-c3ccc4c(c3)c(c(-c3cccnc3[C@H](C)OC)n4C(C)=O)CC(C)(C)COC(=O)[C@@H]3CCCN(N3)C2=O)C(C)C)C1 [Example A293] , I see its IC50 listed as > 10000 nM

Looking up C=CC(=O)N1CCO[C@H]2CN(C(=O)N(C)[C@H](C(=O)N[C@H]3Cc4nc(cs4)-c4ccc5c(c4)c(c(-c4cccnc4[C@H](C)OC)n5CC)CC(C)(C)COC(=O)[C@@H]4CCCN(N4)C3=O)C(C)C)C[C@@H]21 (atropisomer, axis not shown) [Example A544] , I see its IC50 listed as 1000 to 10000 nM

Looking up C=CC(=O)N1CC[C@H](C(=O)N(C)C(C(=O)N[C@H]2C[C@H]3CN(CCO3)c3ccc4c(c3)c(c(-c3cccnc3[C@H](C)OC)n4CC)CC(C)(C)COC(=O)[C@@H]3CCCN(N3)C2=O)C(C)C)C1 (mixture of isomers) [Example A507] , I see its IC50 listed as > 10000 nM

Looking up C=CC(=O)N(C)C1CCN(C(=O)N(C)[C@H](C(=O)N[C@H]2Cc3nc(cs3)-c3ccc4c(c3)c(c(-c3cccnc3[C@H](C)OC)n4CC)CC(C)(C)COC(=O)[C@@H]3CCCN(N3)C2=O)C(C)C)CC1 (atropisomer, axis not shown) [Example A383] , I see its IC50 listed as 100 to 1000 nM

Looking up C=CC(=O)N1CC[C@H](C(=O)N(C)[C@H](C(=O)N[C@H]2Cc3cc(cc(C(F)F)c3)-c3ccc4c(c3)c(c(-c3cccnc3[C@H](C)OC)n4CC(F)(F)F)CC(C)(C)COC(=O)[C@@H]3CCCN(N3)C2=O)C(C)C)C1 (atropisomer, axis not shown) [Example A372] , I see its IC50 listed as > 10000 nM

Looking up C=CC(=O)N1CCCC2(CCN(C(=O)N(C)[C@H](C(=O)N[C@H]3Cc4nc(cs4)-c4ccc5c(c4)c(c(-c4cccnc4[C@H](C)OC)n5CC)CC(C)(C)COC(=O)[C@@H]4CCCN(N4)C3=O)C(C)C)CC2)C1 (atropisomer, axis not shown) [Example A635] , I see its IC50 listed as 1000 to 10000 nM

Looking up C=CC(=O)N1CC[C@H](C(=O)N(C)[C@H](C(=O)N[C@H]2Cc3cc(O)cc(c3)-c3ccc4c(c3)c(c(-c3ccccc3CCOC)n4C(C)(C)C#N)CC(C)(C)COC(=O)[C@@H]3CCCN(N3)C2=O)C(C)C)C1 [Example A034] , I see its IC50 listed as 1000 to 10000 nM

Looking up C=CC(=O)N1CC[C@H](C(=O)N(C)[C@H](C(=O)N[C@H]2Cc3cc(O)cc(c3)-c3ccc4c(c3)c(c(-c3cnn5c3[C@@H](OC)CCC5)n4CC)CC(C)(C)COC(=O)[C@@H]3CCCN(N3)C2=O)C(C)C)C1 [Example A300] , I see its IC50 listed as 100 to 1000 nM

Looking up C=CC(=O)N1CCC12CCN(C(=O)N(C)[C@H](C(=O)N[C@H]1Cc3nc(cs3)-c3ccc4c(c3)c(c(-c3cccnc3[C@H](C)OC)n4CC)CC(C)(C)COC(=O)[C@@H]3CCCN(N3)C1=O)C(C)C)CC2 (atropisomer, axis not shown) [Example A415] , I see its IC50 listed as 1000 to 10000 nM

Looking up C#CCn1c(-c2cccnc2[C@H](C)OC)c2c3cc(ccc31)-c1cccc(c1)C[C@H](NC(=O)[C@H](C(C)C)N(C)C(=O)[C@H]1CCN(C(=O)C=C)C1)C(=O)N1CCC[C@H](N1)C(=O)OCC(C)(C)C2 (atropisomer, axis not shown) [Example A530] , I see its IC50 listed as > 10000 nM

Looking up C=CC(=O)N1CC2(CCN2C(=O)N(C)[C@H](C(=O)N[C@H]2Cc3nc(n(C)n3)-c3ccc4c(c3)c(c(-c3cccnc3[C@H](C)OC)n4CC)CC(C)(C)COC(=O)[C@@H]3CCCN(N3)C2=O)C(C)C)C1 (atropisomer, axis not shown) [Example A612] , I see its IC50 listed as 100 to 1000 nM

Looking up C=CC(=O)N1CC(C(=O)N(C)[C@H](C(=O)N[C@H]2Cc3cc(O)cc(c3)-c3ccc4c(c3)c(c(-c3cccnc3[C@H](C)OC)n4CC)CC(C)(C)COC(=O)[C@@H]3CCCN(N3)C2=O)C(C)C)C1 (atropisomer, axis not shown) [Example A256] , I see its IC50 listed as 100 to 1000 nM

Looking up C=CC(=O)N1CC[C@H](C(=O)N(C)[C@H](C(=O)N[C@H]2Cc3nc(cs3)-c3ccc4c(c3)c(c(-c3cccnc3COC)n4CC)CC(C)(C)COC(=O)[C@@H]3CCCN(N3)C2=O)C(C)C)C1 [Example A094] , I see its IC50 listed as > 10000 nM
